FYI, the data here is from patent US6908919B2.

# target-of-assay: recombinant soluble tissue factor and recombinant human factor VIIa (TF-VIIa) (Homo sapiens, UniProt P08709)
# Construct: conversion of coagulation factor VII to VIIa by Xa; purchased American Diagnostica, Greenwich Conn; host or cells: VIIa purchased; soluble TF made in house in E. coli
# Sequence (P08709 61-212 limits assumed): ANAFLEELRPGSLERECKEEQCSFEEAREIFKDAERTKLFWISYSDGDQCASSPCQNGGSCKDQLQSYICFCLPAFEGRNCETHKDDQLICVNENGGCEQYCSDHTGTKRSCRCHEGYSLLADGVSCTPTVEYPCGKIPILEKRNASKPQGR
# Sequence (P08709 213-466 limits assumed): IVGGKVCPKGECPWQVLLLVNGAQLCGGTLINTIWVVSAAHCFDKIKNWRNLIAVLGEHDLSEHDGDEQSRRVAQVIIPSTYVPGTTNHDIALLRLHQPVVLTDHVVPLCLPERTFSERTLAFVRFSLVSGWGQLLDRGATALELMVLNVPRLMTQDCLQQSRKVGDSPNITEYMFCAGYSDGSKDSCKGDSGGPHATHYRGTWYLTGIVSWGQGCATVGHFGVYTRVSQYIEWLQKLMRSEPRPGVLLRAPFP
# Sequence (P13726 33-251 partner limits assumed): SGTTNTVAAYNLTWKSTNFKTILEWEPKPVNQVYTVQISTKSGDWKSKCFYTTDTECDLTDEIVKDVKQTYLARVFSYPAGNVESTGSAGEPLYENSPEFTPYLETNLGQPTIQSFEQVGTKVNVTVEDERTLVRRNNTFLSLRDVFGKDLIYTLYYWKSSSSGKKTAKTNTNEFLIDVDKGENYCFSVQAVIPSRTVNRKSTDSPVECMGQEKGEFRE
# assay-remarks: TF-VIIa Assay
# Format: biochemical
# test-settings: inhibitor at 100 µM
Measured % Inhibition TF-VIIa (100 µM) accompanies every entry in the list below.
The reply should contain only the number, in %.

These recorded examples may help you get a feel for the data.
{"molecule": "O=C(Cn1c(-c2ccc(Cl)cc2)c(Cl)nc(NCc2ccncc2)c1=O)NCCc1ccncc1 [Example E-0024]", "uom": "%", "% Inhibition TF-VIIa (100 µM)": 0}
{"molecule": "COc1ccc(-c2c(Cl)nc(NCCc3cccc(Cl)c3)c(=O)n2CC(=O)NCCc2ccncc2)cc1 [Example E-0035]", "uom": "%", "% Inhibition TF-VIIa (100 µM)": 4}
{"molecule": "O=C(Cn1c(CCc2ccccc2)c(Cl)nc(NCCc2cccnc2)c1=O)NCCc1ccncc1", "uom": "%", "% Inhibition TF-VIIa (100 µM)": 0}
{"molecule": "Cc1c(Cl)nc(NCc2ccccc2)c(=O)n1CC(=O)NCCc1ccncc1", "uom": "%", "% Inhibition TF-VIIa (100 µM)": 0}
{"molecule": "O=C(Cn1c(-c2cccc(Cl)c2)c(Cl)nc(NCCc2cccc(Cl)c2)c1=O)NCCc1ccncc1 [Example E-0079]", "uom": "%", "% Inhibition TF-VIIa (100 µM)": 0}

Exercise: Suppose we examine the molecule O=C(Cn1c(-c2ccc3c(c2)OCO3)c(Cl)nc(NCCc2ccc(Cl)cc2)c1=O)NCCc1ccncc1 ; what % Inhibition TF-VIIa (100 µM) value has been reported?
Solution: 0

Exercise: Suppose we examine the molecule O=C(Cn1c(-c2cccc(Cl)c2)c(Cl)nc(NCCc2ccc(Cl)cc2)c1=O)NCCc1cccnc1 [Example E-0095] ; what % Inhibition TF-VIIa (100 µM) value has been reported?
Solution: 2

----------
# target-of-assay: Human factor Xa (Homo sapiens, UniProt P00742)
# Sequence (P00742 41-179 limits assumed): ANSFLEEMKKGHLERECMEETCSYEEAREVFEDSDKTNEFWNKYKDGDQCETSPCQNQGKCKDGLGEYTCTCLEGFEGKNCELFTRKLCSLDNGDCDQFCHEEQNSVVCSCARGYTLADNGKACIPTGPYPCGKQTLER
# Sequence (P00742 235-488 limits assumed): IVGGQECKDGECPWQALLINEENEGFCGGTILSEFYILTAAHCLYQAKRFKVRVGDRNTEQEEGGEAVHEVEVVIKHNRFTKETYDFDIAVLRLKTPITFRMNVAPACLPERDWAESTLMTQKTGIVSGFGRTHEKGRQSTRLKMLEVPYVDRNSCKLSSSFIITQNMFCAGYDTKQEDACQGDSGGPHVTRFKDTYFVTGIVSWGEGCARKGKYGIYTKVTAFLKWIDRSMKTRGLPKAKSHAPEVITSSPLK
# assay-remarks: Xa Assay
# Type: biochemical
# Set-up: purchased Enzyme Research Laboratories, South Bend Ind
recorded-metric: % Inhibition Factor Xa (100 µM) (%)
The reply should contain only the number, in %.

{"molecule": "O=C(Cn1c(-c2ccc(-c3ccccc3)cc2)c(Cl)nc(NCc2ccncc2)c1=O)NCCc1ccncc1", "recorded-metric": "% Inhibition Factor Xa (100 µM)", "uom": "%", "recorded-measurement": 0}
{"molecule": "O=C(Cn1c(-c2ccc(-c3ccccc3)cc2)c(Cl)nc(NCCc2ccc(Cl)cc2)c1=O)NCCc1cccnc1", "recorded-metric": "% Inhibition Factor Xa (100 µM)", "uom": "%", "recorded-measurement": 5}
{"molecule": "O=C(Cn1c(-c2ccc(-c3ccccc3)cc2)c(Cl)nc(NCc2ccccc2)c1=O)NCCc1cccnc1", "recorded-metric": "% Inhibition Factor Xa (100 µM)", "uom": "%", "recorded-measurement": 3}
{"molecule": "O=C(Cn1c(-c2ccc(-c3ccccc3)cc2)c(Cl)nc(NCCc2ccccc2)c1=O)NCCc1ccncc1 [Example E-0050]", "recorded-metric": "% Inhibition Factor Xa (100 µM)", "uom": "%", "recorded-measurement": 0}
{"molecule": "O=C(Cn1c(-c2ccc(-c3ccccc3)cc2)c(Cl)nc(NCCc2ccc(Cl)cc2)c1=O)NCCc1ccncc1 [Example E-0118]", "recorded-metric": "% Inhibition Factor Xa (100 µM)", "uom": "%", "recorded-measurement": 3}

Exercise: Recorded % Inhibition Factor Xa (100 µM) for O=C(Cn1c(-c2ccc(-c3ccccc3)cc2)c(Cl)nc(NCCc2ccc(Cl)cc2)c1=O)NCCc1ccncc1 [Example E-0052] with Human factor Xa (Homo sapiens, UniProt P00742), please?
Solution: 0

Exercise: Recorded % Inhibition Factor Xa (100 µM) for O=C(Cn1c(-c2ccc(-c3ccccc3)cc2)c(Cl)nc(NCCc2ccccc2)c1=O)NCCc1ccncc1 [Example E-0112] with Human factor Xa (Homo sapiens, UniProt P00742), please?
Solution: 1

Exercise: Recorded % Inhibition Factor Xa (100 µM) for O=C(Cn1c(-c2ccc(-c3ccccc3)cc2)c(Cl)nc(NCc2ccccc2)c1=O)NCCc1ccncc1 [Example E-0049] with Human factor Xa (Homo sapiens, UniProt P00742), please?
Solution: 0
